System: Trypanosoma brucei brucei
Test: Potency index, ratio of IC50 for CN to IC50 for test compound against Trypanosoma brucei brucei Lister 427 bloodstream forms by microtiter plate based assay
Assay type: functional
METRIC: Ratio IC50
Output spec: single numeric token, no unit.

Worked cases, answers included:
1. C=C[C@H]1CN2CC[C@H]1C[C@@H]2[C@@H](O)c1cc(CC[C@@H](C)[C@H]2CC[C@H]3[C@@H]4[C@H](O)C[C@@H]5C[C@H](O)CC[C@]5(C)[C@H]4C[C@H](O)[C@]23C)nc2ccccc12
61.8
2. C=C[C@H]1CN2CC[C@H]1C[C@@H]2[C@@H](O)c1cc(CC[C@@H](C)[C@H]2CC[C@H]3[C@@H]4CC[C@@H]5C[C@H](OC(C)=O)CC[C@]5(C)[C@H]4C[C@H](OC(C)=O)[C@]23C)nc2ccccc12
45.1
3. C=C[C@H]1CN2CC[C@H]1C[C@@H]2[C@@H](O)c1cc(CC[C@@H](C)[C@H]2CC[C@H]3[C@@H]4C[C@H](O)[C@@H]5C[C@H](O)CC[C@]5(C)[C@H]4CC[C@]23C)nc2ccccc12
94.5
4. C=C[C@H]1CN2CC[C@H]1C[C@@H]2[C@@H](O)c1cc(CC[C@@H](C)[C@H]2CC[C@H]3[C@@H]4C[C@H](OC(C)=O)[C@@H]5C[C@H](OC(C)=O)CC[C@]5(C)[C@H]4CC[C@]23C)nc2ccccc12
105.7
5. C=C[C@H]1CN2CC[C@H]1C[C@@H]2[C@@H](O)c1cc(CC[C@@H](C)[C@H]2CC[C@H]3[C@@H]4[C@H](OC(C)=O)C[C@@H]5C[C@H](OC(C)=O)CC[C@]5(C)[C@H]4C[C@H](OC(C)=O)[C@]23C)nc2ccccc12
123.6

Next item in the queue.
Task: Which Ratio IC50 is reported for this compound? `C=C[C@H]1CN2CC[C@H]1C[C@@H]2[C@@H](O)c1cc(CC[C@@H](C)[C@H]2CC[C@H]3[C@@H]4CC[C@@H]5C[C@H](O)CC[C@]5(C)[C@H]4C[C@H](O)[C@]23C)nc2ccccc12`
Output: 113.1
